# Assay Overview: Quantitative High-Throughput drug screen in 47 multiple myeloma cell lines against the NCATS MIPE library collection: MOLP8_DSMZ cell viability assay (AID 1918977); further: nearly all actives have a fitted effect of over 45% in size; further: potency means the concentration at half of the fitted maximal effect
# Settings: MOLP8 myeloma viability, CellTiter-Glo ATP luminescence, 48 h; series mostly up to 45.8 µM
# Description: PI: Beverly A. Mock Ph.D. Laboratory of Cancer Biology and Genetics, Center for Cancer Research, National Cancer Institute, National Institute of Health, Bethesda, Maryland […] 5; Detector; 425V; Luminescence; Viewlux PerkinElmer. […] 1. […] Briefly, the corresponding myeloma cell lines were screened in 1,536-well plates with 500 cells, 5-uL per well for inhibition of cell viability (assessed by measuring ATP levels with CellTiterGlo). […]
Results filed as inconclusive are left out. Calls of active or inactive are those of the source. The call rests on the fitted dose curve; in most records, active means well fitted cell-killing curve with a large enough effect; inconclusive means small, poorly fitted or top-dose-only effect, or effect the other way; inactive means no such curve, though single readings can be large or run the other way.
Recorded Endpoint: Potency

>>> df
                                   compound              result
0  Cc1cnc(CNC(=O)c2c(=O)c3ccc(N4CCCN(C)CC4)nc3n3c2sc2ccccc23)cn1    9.11 µM (active)
1  CN1CCc2c(n(Cc3ccc(C(=O)NO)cc3)c3ccccc23)C1    18.7 µM (active)
2  C[C@@H]1C[C@H]2[C@@H]3CCC4=CC(=O)C=C[C@]4(C)[C@@]3(F)[C@@H](O)C[C@]2(C)[C@@]1(O)C(=O)CO            inactive
3  Cc1cccc(-c2[nH]c(C(C)(C)C)nc2-c2ccc3c(c2)OCO3)n1    6.62 µM (active)
4  CCC[C@H](Nc1nc(-c2ccc(NC(=O)NCC)c(OC)c2)ncc1C)c1cccnc1  0.0662 µM (active)
5  CCC[C@H](N[C@@H](C)C(=O)N1[C@@H]2CCCC[C@H]2C[C@H]1C(=O)O)C(=O)OCC            inactive
6  CCC(c1ccc(O)cc1)C(CC)c1ccc(O)cc1 (stereo not given)            inactive
7  C[C@@H](O)[C@H]1C(=O)N2C(C(=O)OCOC(=O)C(C)(C)C)=C(SC3CN(C4=NCCS4)C3)[C@H](C)[C@H]12            inactive
8  COc1ccnc(CS(=O)c2nc3ccc(OC(F)F)cc3[nH]2)c1OC (stereo not given)            inactive
9  CN1CCC[C@H]1CCO[C@](C)(c1ccccc1)c1ccc(Cl)cc1            inactive

* * *

# Assay Overview: qHTS for identification of novel therapeutic agents for treatment of microphthalmiaassociated transcription factor (MiT) renal cell carcinoma (RCC) (AID 1963991);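 further: curves scaled with 100% = DMSO viability and 0% = empty wells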
# Settings: TFE3-RCC viability, CellTiter-Glo, 48 h; measured here: UOK145 Z-AUC; stronger effect = lower value
Records with an inconclusive call do not appear.
z-score by entry:

Compound	z-score
CO[C@H]1O[C@@H]2O[C@@]3(C)CC[C@@H]4[C@@H](C)CC[C@@H]([C@H]1C)[C@@]24OO3	0.763
COc1cc(CNC(=O)CCCCC=CC(C)C)ccc1O	0.0429
CCC[C@H](N[C@@H](C)C(=O)N1[C@@H]2CCCC[C@H]2C[C@H]1C(=O)O)C(=O)OCC	0.752
CC1(C)[C@H]2CC[C@]3(C)[C@@H](C(=O)C=C4[C@@H]5C[C@@](C)(C(=O)O)CC[C@]5(C)CC[C@]43C)[C@@]2(C)CC[C@@H]1O	0.985
COc1ccc(-c2nc3ccc(C4=NNC(=O)CC4C)cc3[nH]2)cc1 (configuration not stated)	0.145
CC(=O)OCC(=O)[C@@]1(O)CC[C@H]2[C@@H]3CCC4=CC(=O)C=C[C@]4(C)[C@@H]3[C@@H](O)C[C@@]21C	-2.56
CO[C@H]1/C=C\O[C@@]2(C)Oc3c(C)c(O)c4c(O)c(c5c(nc6cc(C)ccn65)c4c3C2=O)NC(=O)C(C)=CC=C[C@H](C)[C@H](O)[C@@H](C)[C@@H](O)[C@@H](C)[C@H](OC(C)=O)[C@H]1C	0.817
